Target: T1, hPRLR.mFc (soluble dimeric human PRLR) (human)
T1 construct: dimeric PRLR construct
T1 chain: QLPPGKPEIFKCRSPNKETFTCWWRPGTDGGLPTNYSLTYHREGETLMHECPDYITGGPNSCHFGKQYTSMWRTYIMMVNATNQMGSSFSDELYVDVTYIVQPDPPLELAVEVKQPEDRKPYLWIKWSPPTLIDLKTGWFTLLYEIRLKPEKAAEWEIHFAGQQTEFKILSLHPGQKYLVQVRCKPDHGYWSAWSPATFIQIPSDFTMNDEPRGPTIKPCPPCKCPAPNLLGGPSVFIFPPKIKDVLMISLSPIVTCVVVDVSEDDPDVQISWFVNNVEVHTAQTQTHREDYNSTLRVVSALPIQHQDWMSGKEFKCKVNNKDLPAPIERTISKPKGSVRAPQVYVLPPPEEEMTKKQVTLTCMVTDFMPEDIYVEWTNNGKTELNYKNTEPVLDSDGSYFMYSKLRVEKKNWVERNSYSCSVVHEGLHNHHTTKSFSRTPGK
Assay: SPR Biacore, 25 C, mAb capture
measurementLabel: kon (M⁻¹ s⁻¹)
Respond numerically; units are M⁻¹ s⁻¹ and should not be typed.

Ask | Check the records and state kon for H1H6801P (antibody, human IgG1, V domains shown, Human IgG1 Fc (H1H)) VH: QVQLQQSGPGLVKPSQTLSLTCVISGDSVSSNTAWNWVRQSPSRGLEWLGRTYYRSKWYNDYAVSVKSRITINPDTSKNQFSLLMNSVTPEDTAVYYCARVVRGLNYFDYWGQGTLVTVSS VL: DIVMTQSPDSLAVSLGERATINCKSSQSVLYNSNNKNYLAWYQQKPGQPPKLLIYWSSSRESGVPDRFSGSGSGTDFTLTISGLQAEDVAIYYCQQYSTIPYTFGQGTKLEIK
Reply | 675000

All values here come from patent US20180185504A1.
